Test system: Uromyces appendiculatus
assay.remarks: In vivo preventive test on Uromyces appendiculatus (bean rust), Examples G and R7
assay.conditions: 264 h, 500 ppm of active ingredient, bean, preventive spray, evaluated 11 days after inoculation, read-out: efficacy
quantity.name: pest or weed control at 500 ppm

Given the entry N#Cc1cncn1CC(O)(Cc1cc(Cl)nc(Cl)c1)C1(Cl)CC1 (centres unmarked) , report its measured pest or weed control at 500 ppm. 90 to 100%

Item N#Cc1cncn1CC(O)(Cc1ccnc(Cl)c1Cl)C1(Cl)CC1 (centres unmarked) has what recorded pest or weed control at 500 ppm? 90 to 100%

Request the reported pest or weed control at 500 ppm associated with OC(Cc1ccccc1F)(Cn1cncc1Br)C1(Cl)CC1 (centres unmarked) 90 to 100%

# input molecule: C#Cc1cncn1CC(O)(Cc1ccccc1Cl)C1(Cl)CC1 (centres unmarked) ; wanted: its pest or weed control at 500 ppm 90 to 100%

For the molecule OC(Cc1ccc(Cl)cc1F)(Cn1cncc1Br)C1(Cl)CC1 (centres unmarked) , what pest or weed control at 500 ppm is on record? 90 to 100%

# pest or weed control at 500 ppm lookup, item N#Cc1cncn1CC(O)(Cc1ccc(F)cc1F)C1CCC1 (centres unmarked) 90 to 100%

Could you share which pest or weed control at 500 ppm value was measured for N#Cc1cncn1CC(O)(Cc1ccccc1F)C1(F)CC1 (centres unmarked) ? 90 to 100%

Need pest or weed control at 500 ppm, item N#Cc1cncn1CC(O)(Cc1ccc(F)c(F)c1F)C1CCC1 (centres unmarked) 90 to 100%

Value lookup for pest or weed control at 500 ppm; key = OC(Cc1ccc(Cl)cc1)(Cn1cncc1Cl)C1(Cl)CC1 (centres unmarked) 90 to 100%

Need pest or weed control at 500 ppm, item OC(Cc1ccccc1Cl)(Cn1cncc1F)C1(Cl)CC1 (centres unmarked) 90 to 100%

Looking for the measured pest or weed control at 500 ppm of CC1(C(O)(Cc2ccc(F)cc2F)Cn2cncc2C#N)CC1 (centres unmarked) , can you help? 90 to 100%
